Measured pKd values are reported for all entries that follow.
Biological target: T1, G478del-mut1 (Homo sapiens, UniProt Q8WYQ5 285-478, W461A;A462G;E463Q;del370-429)
T1 sequence: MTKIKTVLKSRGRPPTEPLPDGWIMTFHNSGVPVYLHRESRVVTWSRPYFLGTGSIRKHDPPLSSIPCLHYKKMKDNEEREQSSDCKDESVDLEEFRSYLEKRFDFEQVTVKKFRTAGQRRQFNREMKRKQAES
Assay: EMSA; 50 mM Tris-HCl pH 7.5, 250 mM NaCl, 10% glycerol, 0.2 mg/ml BSA, 1 mM DTT, 2 mM EDTA; 1 uM RNA in 10 uL; on ice 60 min; 4% native PAGE at 4 C, ethidium bromide
Details: protein: recombinant; tags: 10xHis; chain copies: 2; hairpin
Schema: pKd number; meaning minus log10 of the concentration expressed in molar units.

{"columns": ["BINDER", "pKd"],
 "data": [
  ["ACUGGAAGCUGUGAAAGAUGGGCUUUCAGU (structured_RNA) [10L10_UGU]", 5.04]
]}

Could you now look at the following binder, please?
## Input I would be grateful if you could share the reported pKd for ACUGGAAGCCAAGAAAGAUGGGCUUUCAGU (structured_RNA) [10L10_noUGU] .
## Output 4.86
